target: human recombinant histamine H2 receptor (Homo sapiens, UniProt P25021); construct: expressed in transfected cells; host or cells: CHO-K1 cells; assay: Histamine H2 radioligand binding ([125I]Aminopotentidine); conditions: percent inhibition of specific binding; screened at 1 μM; read-out: Inhibition of ligand binding, Hist. H2
Sequence (P25021 whole entry): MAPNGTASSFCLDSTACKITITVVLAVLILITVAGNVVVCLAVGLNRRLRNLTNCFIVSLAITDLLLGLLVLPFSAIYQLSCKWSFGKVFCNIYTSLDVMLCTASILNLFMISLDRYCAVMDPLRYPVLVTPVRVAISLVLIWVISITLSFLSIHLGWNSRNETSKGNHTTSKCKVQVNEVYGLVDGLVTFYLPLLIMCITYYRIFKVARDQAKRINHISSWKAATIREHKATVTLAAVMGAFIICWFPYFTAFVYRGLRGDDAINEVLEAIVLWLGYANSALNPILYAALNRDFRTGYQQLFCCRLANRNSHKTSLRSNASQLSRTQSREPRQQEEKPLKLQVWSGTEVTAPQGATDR
Entries are sorted into classes by inhibition at 1 µM as follows: L: < 20%; M: ≥ 20% and < 80%; H: ≥ 80%

Textbook exercise: identify the category of the compound given here, `CCOC(=O)N1CCc2c(c3cc(-c4cccnc4)ccc3n2CCc2ccc(C)nc2)C1` , according to its measured value.
L

Kindly identify the class of `CN1CCc2c(c3cc(Cl)ccc3n2CCn2cccc2)C1` .
H

Textbook exercise: identify the category of the compound given here, `CCCc1ccc(CCn2c3c(c4cc(C)ccc42)CN(C)CC3)cn1` , according to its measured value.
H

Record `Cc1ccc2c(c1)c1c(n2CC(=O)N2CCc3ccccc3C2)CCN(C)C1` — which class?
M

Class label required: `CN1CCc2c(c3ccccc3n2CCc2ccccn2)C1`
L

In plain terms, what class is `Cc1ccc2c(c1)c1c(n2CCC(=O)N2CCC(NC(=O)OC(C)(C)C)CC2)CCN(C)C1` ?
L

# bin lookup: classify `Cc1ccc2c(c1)c1c(n2CCc2ccc(C(=O)O)nc2)CCN(C)C1` by its inhibition at 1 µM
L

Lab log: `Cc1ccc(CCn2c3c(c4cc(C(=O)O)ccc42)CN(C)CC3)cn1` — assign inhibition at 1 µM category
L

Which inhibition at 1 µM band matches `CC1CCN(C(=O)CCn2c3c(c4cc(Cl)ccc42)CN(C)CC3)CC1` ?
M

Lab log: `CC(C)c1ccc2c(c1)c1c(n2CCc2ccc(C(F)(F)F)nc2)CCN(C)C1` — assign inhibition at 1 µM category
M

Which band does `CN1CCc2c(c3cc(Cl)ccc3n2CC(=O)N2CC[S+]([O-])CC2)C1` fall in?
L

Classify this compound: Cc1ccc(C(O)Cn2c3c(c4cc(C)ccc42)CN(C)CC3)cc1 (racemic)
H

Which bin, given its inhibition at 1 µM, does `Cc1ccc2c(c1)c1c(n2CCc2ccccc2)CCN(C)C1` occupy?
H

Assign a bin to `CN1CCc2c(c3c(Cl)cccc3n2CCc2ccccc2)C1`
M

# classify by inhibition at 1 µM band: `COc1ccc(CCn2c3c(c4cc(Cl)ccc42)CN(C)CC3)cc1F`
H

Could you tell me which band `Cc1ccc2c(c1)c1c(n2CCc2ccc(Cl)cc2)CCN(C)C1` belongs to?
H

Input `CN1CCc2c(c3cc(OC(F)(F)F)ccc3n2CCc2ccc(C(F)(F)F)nc2)C1` ; output its category
L

Which bin, given its inhibition at 1 µM, does `CCOC(=O)N1CCc2c(c3cc(Br)ccc3n2CCc2ccc(C)nc2)C1` occupy?
L

Where would `Cc1ccc2c(c1)c1c(n2CCc2ccc(C)nc2)CC(=O)N(C)C1` land among the classes by reported inhibition at 1 µM?
M

Assign a bin to CC(Cn1c2c(c3ccccc31)CN(C)CC2)c1ccc(F)cc1 (stereo not drawn)
H

Which inhibition at 1 µM band matches `CN1CCc2c(c3ccccc3n2CCc2ccncc2)C1` ?
L

Band for the recorded inhibition at 1 µM of `Cc1ccc2c(c1)c1c(n2CCc2cnccn2)CCN(C)C1` ?
L

Which inhibition at 1 µM band matches `CN1CCc2c(c3ccc(Cl)cc3n2CCC2CCCCC2)C1` ?
M

Consider CC1CN(C(=O)Cn2c3c(c4cc(Cl)ccc42)CN(C)CC3)CC(C)N1 (stereo not drawn) . To which inhibition at 1 µM class does it belong?
L

In plain terms, what class is `Cc1ccc2c(c1)c1c(n2CCCc2ccc(C(F)(F)F)nc2)CCN(C)C1` ?
M

Where would `CCCc1ccc(CCn2c3c(c4cc(Cl)ccc42)CN(C)CC3)cn1` land among the classes by reported inhibition at 1 µM?
H

Band for the recorded inhibition at 1 µM of `CCN1CCc2c(c3cc(C)ccc3n2Cc2ccccc2)C1` ?
M

Form field 'band' for `CCN1CCc2c(c3cc(C)ccc3n2CCc2ccncc2)C1`
M
